- experimentalSetup: human gut metagenome, 24 h, 2 µM; also: call rule not given here
readoutType: Bacterial Biotransformation

CC(=O)Nc1ccc(OC(C)=O)cc1 [DIACETAMATE]	Compound metabolized
COC(=O)C(c1ccccc1)C1CCCCN1 (centres undefined) [METHYLPHENIDATE]	Compound NOT metabolized
CN1CCN(C2=Nc3ccccc3Oc3ccc(Cl)cc32)CC1.O=C(O)CCC(=O)O [LOXAPINE SUCCINATE]	Compound NOT metabolized
COc1ccc2cc([C@H](C)C(=O)O)ccc2c1	Compound metabolized
CCc1oc2ccccc2c1C(=O)c1cc(Br)c(O)c(Br)c1	Compound NOT metabolized
c1ccc2[nH]c(-c3cscn3)nc2c1	Compound NOT metabolized
CCN1CCCC1CNC(=O)c1cc(S(=O)(=O)CC)c(N)cc1OC (centres undefined) [AMISULPRIDE]	Compound NOT metabolized
CCN(C)C(=O)Oc1cccc([C@H](C)N(C)C)c1.O=C(O)C(O)C(O)C(=O)O [RIVASTIGMINE TARTRATE]	Compound metabolized
OCCN(CCO)c1nc(N2CCCCC2)c2nc(N(CCO)CCO)nc(N3CCCCC3)c2n1	Compound NOT metabolized

###

- experimentalSetup: human gut metagenome, 24 h, 2 µM
readoutType: Bacterial Biotransformation

Cc1ccccc1C(OCCN(C)C)c1ccccc1.O=C(O)CC(O)(CC(=O)O)C(=O)O (stereo not drawn) [ORPHENADRINE CITRATE]	Compound metabolized
N=C(N)NC(=O)Cc1c(Cl)cccc1Cl	Compound NOT metabolized
CC(NC(C)(C)C)C(=O)c1cccc(Cl)c1 (stereo not drawn)	Compound NOT metabolized
CN(C)C(=O)Oc1cccc([N+](C)(C)C)c1.[Br-] [NEOSTIGMINE BROMIDE]	Compound NOT metabolized
CC1=C(CC(=O)O)c2cc(F)ccc2/C1=C\c1ccc([S+](C)[O-])cc1 (stereo not drawn)	Compound metabolized
O=C(CCCN1CCC2(CC1)C(=O)NCN2c1ccccc1)c1ccc(F)cc1	Compound NOT metabolized
C#C[C@]1(OC(C)=O)CC[C@H]2[C@@H]3CCC4=CC(=O)CC[C@@H]4[C@H]3CC[C@@]21C [NORETHINDRONE ACETATE]	Compound metabolized
CN1CCN2c3ccccc3Cc3ccccc3C2C1 (stereo not drawn)	Compound NOT metabolized
CC(=O)CCCCn1c(=O)c2c(ncn2C)n(C)c1=O	Compound NOT metabolized
CCCCCNC(=N)N/N=C/c1c[nH]c2ccc(OC)cc12.O=C(O)/C=C\C(=O)O [TEGASEROD MALEATE]	Compound NOT metabolized
CC(=O)Oc1ccc(C(c2ccc(OC(C)=O)cc2)c2ccccn2)cc1	Compound metabolized
CN1CCC[C@@H]1CCO[C@](C)(c1ccccc1)c1ccc(Cl)cc1.O=C(O)/C=C/C(=O)O [CLEMASTINE FUMARATE]	Compound NOT metabolized
CC(C)(C)NCC(O)c1cc(Cl)c(N)c(Cl)c1 (stereo not drawn)	Compound NOT metabolized
CC[C@H](C)C(=O)O[C@H]1CCC=C2C=C[C@H](C)[C@H](CC[C@@H]3C[C@@H](O)CC(=O)O3)[C@H]21	Compound NOT metabolized
COc1cc(NC(C)CCCN)c2ncccc2c1.O=P(O)(O)O.O=P(O)(O)O (stereo not drawn) [PRIMAQUINE PHOSPHATE]	Compound metabolized
Cc1cc2c(s1)Nc1ccccc1N=C2N1CCN(C)CC1	Compound NOT metabolized
C#C[C@]1(OC(C)=O)CC[C@H]2[C@@H]3CCC4=C/C(=N/O)CC[C@@H]4[C@H]3CC[C@@]21CC [NORGESTIMATE]	Compound metabolized
CC12CC3CC(C)(C1)CC(N)(C3)C2 [MEMANTINE]	Compound NOT metabolized

Values were extracted from ChEMBL document CHEMBL5724914.
